Experiment notes: Drug metabolism in human liver microsomes assessed as enzyme-mediated O-deethylation incubated for 5 mins prior to NADPH addition measured after 25 mins by Michaelis-Menten equation analysis
Assay type: ADME
Details: liver microsomes, read-out: KmL
Measured metric: Km at 25 min
I'd appreciate it if you included the unit after the number.

Inquiry: Return reported Km at 25 min; argument: `CCOc1ccc(NC(C)=O)cc1`
Reply text: 867 µM

====

Experiment notes: Drug metabolism in human liver microsomes assessed as enzyme-mediated O-deethylation incubated for 5 mins prior to NADPH addition measured after 25 mins by Michaelis-Menten equation analysis in presence of BSA
Type: ADME
Details: liver microsomes, read-out: KmH
Measured metric: Km at 25 min (µM)
# number only, unit µM dropped from output

Inquiry: Return reported Km at 25 min; argument: CCOc1ccc(NC(C)=O)cc1 [PHENACETIN]
Reply text: 6.6

====

Experiment notes: Fraction unbound in human liver microsomes by equilibrium dialysis method in presence of BSA
Measured metric: fraction unbound
Give only the figure.

Inquiry: Return reported fraction unbound; argument: `CCOc1ccc(NC(C)=O)cc1`
Reply text: 0.78

====

Measured target: Cytochrome P450 1A2 (Rattus norvegicus, UniProt P04799)
Sequence (P04799 whole entry): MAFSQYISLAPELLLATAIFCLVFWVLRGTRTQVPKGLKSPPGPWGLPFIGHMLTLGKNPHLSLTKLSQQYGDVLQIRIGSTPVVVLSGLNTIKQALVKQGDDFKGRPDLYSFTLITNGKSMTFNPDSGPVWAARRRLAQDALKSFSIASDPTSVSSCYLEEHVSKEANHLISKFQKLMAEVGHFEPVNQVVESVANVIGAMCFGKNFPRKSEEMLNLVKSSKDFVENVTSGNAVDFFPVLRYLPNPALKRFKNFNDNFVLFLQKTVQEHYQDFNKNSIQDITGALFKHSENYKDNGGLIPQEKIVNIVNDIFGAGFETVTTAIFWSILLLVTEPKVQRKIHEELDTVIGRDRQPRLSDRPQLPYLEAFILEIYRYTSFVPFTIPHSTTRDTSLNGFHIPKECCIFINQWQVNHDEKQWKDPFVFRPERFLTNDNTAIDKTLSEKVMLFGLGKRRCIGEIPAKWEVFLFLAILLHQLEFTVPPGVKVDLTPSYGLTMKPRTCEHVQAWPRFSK
Experiment notes: Binding affinity to rat recombinant CYP1A2 expressed in Escherichia coli assessed as fraction unbound by equilibrium dialysis method in presence of BSA
Format: ADME
Measured metric: fraction unbound
Give only the figure.

Inquiry: Entry `CCOc1ccc(NC(C)=O)cc1` , system Cytochrome P450 1A2 (Rattus norvegicus, UniProt P04799): what fraction unbound was measured?
Reply text: 0.8

====

Experiment notes: Drug metabolism in human liver microsomes assessed as enzyme-mediated O-deethylation incubated for 5 mins prior to NADPH addition measured after 25 mins by Michaelis-Menten equation analysis in presence of BSA
Type: ADME
Details: liver microsomes, read-out: KmL
Measured metric: Km at 25 min (µM)
# number only, unit µM dropped from output

Inquiry: Return reported Km at 25 min; argument: CCOc1ccc(NC(C)=O)cc1 [PHENACETIN]
Reply text: 881

Just for reference, ChEMBL document CHEMBL3526044 is where these values come from.
